Data origin: the supplement of paper PMC10037445

Kindly state NF-kB SEAP reporter activity for each of the entries shown.
system: RAW-Dual; test: NF-kB SEAP reporter activity, fold change vs agonist alone; cytotoxicity flag (confluency mask): not cytotoxic; higher = enhanced NF-kB activity; settings: agonist: Pam2CSK4 (TLR2/6) 0.1 ug/mL
Whole data set: some 2,900 compounds, median “NF-kB SEAP reporter activity, fold change vs agonist alone” near 0.99, cut for the highest 2% near 2.6. Only a selection was taken, and the highest values are over-represented in it overall.
One number for each entry.

Some entries whose results are on file:
>>> reported("Nc1nc2cc(-c3ccc4ncc(C(=O)N5CCOCC5)n4c3)ccc2o1 (library stock concentration (final ~1000-fold dilution): 10 mM)")
0.774
>>> reported("Cn1cc(-c2cc(Oc3cc(F)c(NC(=O)C4(C(=O)Nc5ccccc5)CC4)cc3F)ccn2)cn1 (library stock concentration (final ~1000-fold dilution): 10 mM)")
0.629
>>> reported("COc1cc2nccc(Oc3ccc(NC(=O)C4(C(=O)Nc5ccc(F)cc5)CC4)cc3)c2cc1OC.O=C(O)CC(O)C(=O)O (library stock concentration (final ~1000-fold dilution): 10 mM)")
0.284
>>> reported("COc1cccc(-c2c(C)n(Cc3c(F)cccc3C(F)(F)F)c(=O)n(CC(NCCCC(=O)O)c3ccccc3)c2=O)c1F (stereo unspecified) (library stock concentration (final ~1000-fold dilution): 10 mM)")
0.866

For every listed record, write down its NF-kB SEAP reporter activity.
1. COc1cc(CCC(O)CC(O)CCc2ccc(O)c(OC)c2)ccc1O (stereo unspecified) (library stock concentration (final ~1000-fold dilution): 10 mM)
2. O=C1OC(=O)C2C3CCC(O3)C12 (stereo unspecified) (library stock concentration (final ~1000-fold dilution): 10 mM)
3. CC(C)=CCCC(C)(OC1OC(CO)C(O)C(O)C1O)C1CCC2(C)C1C(O)CC1C3(C)CCC(OC4OC(CO)C(O)C(O)C4OC4OC(CO)C(O)C(O)C4O)C(C)(C)C3CCC12C (stereo unspecified) (library stock concentration (final ~1000-fold dilution): 10 mM)
4. CNCCCC12CCC(c3ccccc31)c1ccccc12.Cl (library stock concentration (final ~1000-fold dilution): 10 mM)
5. COc1cccc(CCc2ccccc2OCC(CN(C)C)OC(=O)CCC(=O)O)c1.Cl (stereo unspecified) (library stock concentration (final ~1000-fold dilution): 10 mM)

Result:
1.08
1.84
0.899
0.537
1.03

For every listed record, write down its NF-kB SEAP reporter activity.
1. Br.COc1cc(Br)c(Nc2nc(-c3c(C)nc4ncccn34)cs2)c(Br)c1 (library stock concentration (final ~1000-fold dilution): 10 mM)
2. CCC(=O)N1CCN(c2ccc(-n3c(=O)ccc4cnc5ccc(-c6cnc7ccccc7c6)cc5c43)cc2C(F)(F)F)CC1 (library stock concentration (final ~1000-fold dilution): 2 mM)

Result:
1: 0.305; 2: 0.421
